- Tested on: P-gp (substrate test by growth inhibition)
- Experimental details: Growth inhibition assay (crystal violet), P-gp over-expressing L-MDR1
- Assay type: cell-based
- Experimental parameters: pig, L-MDR1 cells (LLC-PK1 over-expressing human P-gp), with LY335979 (zosuquidar), concentration not given; L-MDR1 + LY335979 (P-gp inhibitor)
- Description: Cell lines with overexpression of an efflux transporter are more resistant to the anti-proliferative effects of a compound if this compound is a substrate of the respective transporter and can be extruded from the cell. […] Reversal of drug resistance was tested by using the P-gp-specific inhibitor LY335979 (zosuquidar) or the BCRP-specific inhibitor FTC. The assay using crystal violet staining was conducted and analysed as described previously. […]
Property measured: pIC50
Numbers only, as −log10 of the molar value.

Quick note, pIC50 for CCN(CCO)CCCC(C)Nc1ccnc2cc(Cl)ccc12 (stereo not shown) [hydroxychloroquine] landed at 4.05

###

- Test system: P-gp (substrate test by growth inhibition)
- Experimental details: Growth inhibition assay (crystal violet), P-gp over-expressing L-MDR1
- Type: cell-based
- Experimental parameters: pig, L-MDR1 cells (LLC-PK1 over-expressing human P-gp)
Property measured: IC50 (µM)
Give bare numbers, in µM.

Quick note, IC50 for CCN(CCO)CCCC(C)Nc1ccnc2cc(Cl)ccc12 (stereo not shown) [hydroxychloroquine] landed at 427

###

- Tested on: OATP1B3 (Homo sapiens)
- Construct: expressed in transfected cells; host or cells: HEK293 (HEK-OATP1B3)
- Sequence (Q9NPD5 whole entry): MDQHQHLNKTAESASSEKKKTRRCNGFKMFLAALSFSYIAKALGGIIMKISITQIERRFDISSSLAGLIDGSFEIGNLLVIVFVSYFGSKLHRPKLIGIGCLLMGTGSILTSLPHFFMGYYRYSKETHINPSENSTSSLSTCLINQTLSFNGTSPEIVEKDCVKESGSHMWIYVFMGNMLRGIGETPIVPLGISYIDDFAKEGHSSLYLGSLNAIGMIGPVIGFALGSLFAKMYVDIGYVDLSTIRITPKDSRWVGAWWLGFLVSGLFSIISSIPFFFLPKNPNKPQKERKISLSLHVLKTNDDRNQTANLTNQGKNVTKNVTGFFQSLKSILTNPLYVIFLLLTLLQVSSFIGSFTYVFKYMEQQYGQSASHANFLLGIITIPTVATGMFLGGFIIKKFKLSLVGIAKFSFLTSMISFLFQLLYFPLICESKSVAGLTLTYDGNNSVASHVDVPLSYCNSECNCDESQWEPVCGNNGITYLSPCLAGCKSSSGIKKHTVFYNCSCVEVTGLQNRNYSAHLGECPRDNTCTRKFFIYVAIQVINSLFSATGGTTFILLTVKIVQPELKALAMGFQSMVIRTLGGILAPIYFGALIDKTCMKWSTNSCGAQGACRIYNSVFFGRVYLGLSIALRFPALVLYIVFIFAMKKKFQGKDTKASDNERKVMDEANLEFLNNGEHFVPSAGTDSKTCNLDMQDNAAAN
- Experimental details: Flow cytometric OATP1B3 inhibition assay (8-FcA uptake, HEK-OATP1B3)
- Format: cell-based
- Experimental parameters: human, HEK293 cells stably transfected with OATP1B3 (HEK-OATP1B3), probe 8-FcA; 20 µM, positive control
Property measured: inhibition at 10 min, 20 µM (%)
Answers are plain numbers, in %.

Quick note, inhibition at 10 min, 20 µM for CO[C@H]1/C=C/O[C@@]2(C)Oc3c(C)c(O)c4c(O)c(c(/C=N/N5CCN(C)CC5)c(O)c4c3C2=O)NC(=O)/C(C)=C\C=C\[C@H](C)[C@H](O)[C@@H](C)[C@@H](O)[C@@H](C)[C@H](OC(C)=O)[C@@H]1C landed at 90

###

- System: BCRP (substrate test by growth inhibition)
- Experimental details: Growth inhibition assay (crystal violet), BCRP over-expressing MDCKII-BCRP
- Assay type: cell-based
- Experimental parameters: dog, MDCKII-BCRP cells (MDCKII over-expressing human BCRP), with FTC, concentration not given; MDCKII-BCRP + FTC
Property measured: IC50 (µM)
Numbers only, in µM.

Quick note, IC50 for CCN(CCO)CCCC(C)Nc1ccnc2cc(Cl)ccc12 (stereo not shown) [hydroxychloroquine] landed at 92
